- TARGET OF ASSAY: MMP-8 (Homo sapiens, UniProt P22894)
- Construct: In regard to MMP-8, catalytic domain (^99Phe˜^262Gly) was amplified with PCR; His-tag; enterokinase digestion-site; made in house
- Sequence (P22894 99-262): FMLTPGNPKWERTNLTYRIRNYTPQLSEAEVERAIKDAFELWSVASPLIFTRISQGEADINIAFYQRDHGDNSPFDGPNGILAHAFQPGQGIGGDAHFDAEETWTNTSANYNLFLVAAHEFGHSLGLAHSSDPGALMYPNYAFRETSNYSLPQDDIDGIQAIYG
- PROTOCOL SUMMARY: Assay for inhibitory activities on MMPs (fluorogenic MOCAc peptide substrate): MMP-8
- Type: biochemical
- ASSAY CONDITIONS: catalytic domain 99Phe-262Gly
- Procedure: In regard to MMP-8, catalytic domain (^99Phe˜^262Gly) was amplified with PCR using commercial available Human Bone Marrow cDNA. […] The enzymatic activity on MMPs was analyzed by the method described in “C. […] The value of inhibitory activity against MMP-2, MMP-8, MMP-9, MMP-12, and MMP-13 measured by above mentioned methods are shown in Table 36, 37, 38, 39, and 40 respectively.
One threshold, 0.003 µM, splits the recorded IC50 values: lower ones are True, equal or higher ones are False.

# count of solved cases: 8
CC(C)[C@H](NS(=O)(=O)c1ccc(-c2cc(-c3ccc(Cl)c(F)c3)on2)cc1)C(=O)O	False
CCC(C)[C@H](NS(=O)(=O)c1ccc(-c2cc(-c3ccc(Cl)c(Cl)c3)on2)cc1)C(=O)O (stereo partly drawn)	False
CCC(C)[C@H](NS(=O)(=O)c1ccc(-c2cc(-c3ccc(Cl)s3)on2)cc1)C(=O)O (stereo partly drawn)	True
CC(C)C[C@H](NS(=O)(=O)c1ccc(-c2cc(-c3ccc4c(c3)OCO4)on2)cc1)C(=O)O	False
Cc1ccc(-c2cc(-c3ccc(S(=O)(=O)N[C@H](C(=O)O)C(C)C)cc3)no2)s1	True
CC(C)[C@@H](NS(=O)(=O)c1ccc(-c2cc(-c3ccc4c(c3)CCO4)on2)cc1)C(=O)O	True
CC(C)[C@H](NS(=O)(=O)c1ccc(-c2cc(-c3ccc(Cl)s3)on2)cc1)C(=O)O	True
CC(C)C[C@H](NS(=O)(=O)c1ccc(-c2cc(-c3ccc4c(c3)CCO4)on2)cc1)C(=O)O	True

**Query** In plain terms, does CCC(C)[C@H](NS(=O)(=O)c1ccc(-c2cc(-c3ccc(SC)cc3)on2)cc1)C(=O)O (stereo partly drawn) come in under 0.003 µM for IC50?
**Result** False

**Query** Dear colleague, could you confirm whether IC50 of COc1ccc(-c2cc(-c3ccc(S(=O)(=O)N[C@H](C(=O)O)C(C)C)cc3)no2)cc1 falls below 0.003 µM? Thanks.
**Result** False

**Query** Is 0.003 µM strictly greater than the compound's reported IC50? compound: Cc1ccc(-c2cc(-c3ccc(S(=O)(=O)N[C@@H](C(=O)O)C(C)(C)C)cc3)no2)s1
**Result** True

**Query** Does the reported IC50 of the following compound sit strictly below 0.003 µM? CCCCc1ccc(-c2cc(-c3ccc(S(=O)(=O)N[C@@H](C(=O)O)C(C)C)cc3)no2)cc1
**Result** False

**Query** Consider CC(C)C[C@H](NS(=O)(=O)c1ccc(-c2cc(-c3ccc(Cl)c(Cl)c3)on2)cc1)C(=O)O . Does its IC50 lie strictly below 0.003 µM?
**Result** False

**Query** Here's an entry: CC(C)C[C@@H](NS(=O)(=O)c1ccc(-c2cc(-c3ccc(Cl)s3)on2)cc1)C(=O)O . Is its IC50 below 0.003 µM?
**Result** False

**Query** For CSc1ccc(-c2cc(-c3ccc(S(=O)(=O)N[C@@H](C(=O)O)C(C)C)cc3)no2)cc1 , is the recorded IC50 below the cut-off of 0.003 µM?
**Result** False

Where these numbers come from: patent US7825146B2
